- System: total β-catenin in SW480 colorectal cells
- assay_protocol: cells
- Format: cell-based
- condition_notes: Homo sapiens; SW480 cells, 40 to 48 hours, top concentration 10 μM; read-out: SW480-Total β-Catenin IC50 IP
Range-based classes on measured IC50: lo: < 600 nM; med: ≥ 600 nM and < 2000 nM; hi: ≥ 2000 nM

| molecule | group_label |
| --- | --- |
| CC1(C)OC(=O)N(c2ccc(-c3cc(-c4ncccn4)ncc3F)cc2)[C@H]1c1ccccc1 | hi |
| CC1(C)OC(=O)N(c2ccc(C(=O)Nc3cccc4cccnc34)cc2)C1c1cccnc1 (racemic) | hi |
| CC1(C)OC(=O)N([C@H]2CC[C@H](n3c(=O)[nH]c4cc(Cl)ccc43)CC2)[C@H]1c1ccccc1 | lo |
| CC1(C)OC(=O)N(c2ccc(N3C(=O)Cc4ccccc43)cc2)[C@H]1c1ccccc1 | hi |
| CC1(C)OC(=O)N([C@H]2CC[C@H](n3c(=O)[nH]c4cc(Br)cnc43)CC2)[C@H]1c1ccccc1 | med |
| COc1ccc(C2N(c3ccc(C(=O)Nc4cccc5cccnc45)cc3)C(=O)OC2(C)C)cc1 (racemic) | hi |
| C[C@]1(c2ccccc2)CN([C@H]2CC[C@H](n3c(=O)[nH]c4cc(C#N)ccc43)CC2)C(=O)O1 (single isomer, unassigned) | hi |
| CC1(C)OC(=O)N([C@H]2CC[C@H](n3c(=O)n(CC(F)F)c4cnccc43)CC2)[C@H]1c1ccccc1 | hi |
| CC1(C)OC(=O)N([C@H]2CC[C@H](n3c(=O)[nH]c4c(C#N)cccc43)CC2)[C@H]1c1ccccc1 | lo |
| CC1(C)OC(=O)N([C@@H]2CC=C(c3cnc4cc[nH]c4c3)CC2)[C@H]1c1ccccc1 (mixture of isomers) | hi |
| CC1(C)OC(=O)N(c2ccc(-c3cnc(N)nc3)cc2)[C@H]1c1ccccc1 | hi |
| C[C@@]1(c2ccccc2)CN([C@H]2CC[C@@H](n3c(=O)[nH]c4cc(C#N)ccc43)CC2)C(=O)O1 (stereo in doubt) | lo |
| CC1(C)OC(=O)N([C@H]2CC[C@H](N3Cc4cc(C#N)ccc4NC3=O)CC2)[C@H]1c1ccccc1 | lo |
| CC1(C)OC(=O)N(c2ccc(-c3cc(-c4ccccn4)c[nH]c3=O)cc2)[C@H]1c1ccccc1 | med |
| CC1(C)OC(=O)N([C@H]2CC[C@@H](c3cnc(N)c(C4=NCCCN4)c3)CC2)[C@H]1c1ccccc1 | hi |
| CC1(C)OC(=O)N([C@H]2CC[C@H](c3cnc4[nH]c(=O)n(-c5ncccn5)c4c3)CC2)[C@@H]1c1ccccc1 (single isomer, unassigned) | med |
| CC1(C)OC(=O)N(c2ccc(-c3cnc(N)c(-c4ncccn4)c3)cc2)[C@H]1c1ccccc1 | lo |
| CC1(C)OC(=O)N(C2CC=C(c3cnc(N)c(-c4ncccn4)c3)CC2)C1c1ccccc1 (centres unmarked) | lo |
| CC1(C)OC(=O)N([C@H]2CC[C@H](n3c(=O)[nH]c4ccccc43)CC2)C1c1ccccc1 (some centres unmarked) | med |
| CC1(C)OC(=O)N(c2ccc(C(=O)Nc3cccc4cccnc34)cc2)[C@@H]1c1ccccn1 | hi |
| CC1(C)OC(=O)N([C@H]2CC[C@H](c3cnc(N)c(C4=NCCCN4)c3)CC2)[C@H]1c1ccccc1 | hi |
| CC1(C)OC(=O)N(c2ccc3c(c2)CCN(c2cccc4cccnc24)C3=O)[C@H]1c1ccccc1 | hi |
| CC1(C)OC(=O)N(c2ccc(C(=O)Nc3cccc4cccnc34)cc2)[C@H]1c1ccccn1 | hi |
| CC1(C)OC(=O)N(c2ccc(-c3cc(-c4cccnc4)cnc3F)cc2)[C@H]1c1ccccc1 | med |
| CC1(C)OC(=O)N(c2ccc(-c3cc(-c4cccnc4)c[nH]c3=O)cc2)[C@H]1c1ccccc1 | hi |
| CC1(c2ccccc2)CN([C@H]2CC[C@@H](n3c(=O)[nH]c4cc(C#N)ccc43)CC2)C(=O)O1 (some centres unmarked) | lo |
| CC1(C)OC(=O)N(c2ccc(-n3c(=O)[nH]c4cnccc43)cc2)[C@H]1c1ccccc1 | hi |
| CC1(C)OC(=O)N([C@H]2CC[C@H](c3nnc(-c4ccccc4)o3)CC2)[C@H]1c1ccccc1 | hi |

---

- Test system: total β-catenin in SW480 colorectal cells
- assay_protocol: cells
- Type: cell-based
- condition_notes: Homo sapiens; SW480 cells, 40 to 48 hours, top concentration 10 μM; read-out: SW480-Total β-Catenin IC50 IP
One threshold, 2000 nM, splits the recorded IC50 values: lower ones are Y, equal or higher ones are N.

| molecule | group_label |
| --- | --- |
| CC1(C)OC(=O)N(c2ccc(-c3cc4ccncc4[nH]c3=O)cc2)[C@H]1c1ccccc1 | Y |
| COc1cccc([C@@H]2N(c3ccc(C(=O)Nc4cccc5cccnc45)cc3)C(=O)OC2(C)C)c1 | N |
| C[C@@]1(c2ccccc2)CN([C@H]2CC[C@H](n3c(=O)[nH]c4cnccc43)CC2)C(=O)O1 (single isomer, unassigned) | N |
| CC1(C)OC(=O)N([C@H]2CC[C@H](n3c(=O)[nH]c4cccnc43)CC2)[C@@H]1c1ccccc1 | N |
| CC1(C)OC(=O)N(c2ccc(C(=O)Nc3cccc4cccnc34)cc2)C1c1ccncc1 (racemic) | Y |
| CC1(C)OC(=O)N([C@@H]2CC=C(c3cc(-c4ncccn4)c[nH]c3=O)CC2)[C@H]1c1ccccc1 (single isomer, unassigned) | Y |
| CC1(C)OC(=O)N([C@H]2CC[C@H](n3c(=O)[nH]c4cnc(Cl)cc43)CC2)[C@H]1c1ccccc1 | Y |
| CC1(C)OC(=O)N(c2ccc(C(=O)Nc3cccc4cccnc34)cc2)C1c1cccc(F)c1 (racemic) | N |
| CCC1(CC)OC(=O)N(c2ccc(C(=O)Nc3cccc4cccnc34)cc2)[C@H]1c1ccccc1 | N |
| CC1(C)OC(=O)N(c2ccc(-c3nnc4cc(-c5cncnc5)ccn34)cc2)[C@H]1c1ccccc1 | N |
| CC1(C)OC(=O)N(c2ccc(-n3c(=O)[nH]c4ccccc43)nc2)[C@H]1c1ccccc1 | N |
| CC1(C)OC(=O)N(c2ccc(C(=O)Nc3cccc4cccnc34)cc2)C1c1ccccn1 (racemic) | N |
| CC1(C)OC(=O)N([C@H]2CC[C@H](c3cnc4[nH]c(=O)n(-c5ncccn5)c4c3)CC2)[C@H]1c1ccccc1 | Y |
| CC1(C)OC(=O)N([C@H]2CC[C@H](c3c[nH]c(=O)c(-c4ncccn4)c3)CC2)[C@H]1c1ccccc1 | N |
| CC1(C)OC(=O)N([C@H]2CC[C@H](n3c(=O)[nH]c4cnccc43)CC2)[C@H]1c1ccccc1 | Y |
| CC1(C)OC(=O)N([C@H]2CC[C@@H](c3c[nH]c(=O)c(-c4ncccn4)c3)CC2)[C@H]1c1ccccc1 | N |
| CC1(C)OC(=O)N([C@H]2CC[C@H](n3c(=O)[nH]c4cccnc43)CC2)[C@H]1c1ccccc1 | Y |
| CC1(C)OC(=O)N([C@H]2CC[C@H](n3c(=O)[nH]c4cc(C#N)cnc43)CC2)[C@H]1c1ccccc1 | Y |
| CC1(C)OC(=O)N(c2ccc(-c3cnc(N)c(-c4ncc(F)cn4)c3)cc2)[C@H]1c1ccccc1 | Y |
| CC1(C)OC(=O)N([C@H]2CC[C@H](n3c(=O)[nH]c4ncccc43)CC2)[C@@H]1c1ccccc1 | N |
| CC1(C)OC(=O)N(c2ccc(-c3nnc4ccc(Cl)nn34)cc2)[C@H]1c1ccccc1 | N |
| CC1(C)OC(=O)N([C@H]2CC[C@H](c3nnc(-c4ccccc4)o3)CC2)C1c1ccccc1 (stereo partly drawn) | N |
| CC1(C)OC(=O)N([C@H]2CC[C@H](n3c(=O)[nH]c4cnccc43)CC2)[C@H]1c1ccc(F)cc1 | Y |
| CC1(C)OC(=O)N(c2ccc(C(=O)Nc3cccc4cccnc34)cc2)[C@H]1c1cccc(F)c1 | Y |
| CC1(C)OC(=O)N(c2ccc(-c3nnc4cc(C#N)ccn34)cc2)[C@H]1c1ccccc1 | N |
| CC1(C)OC(=O)N([C@H]2CC[C@H](n3c(=O)[nH]c4cccnc43)CC2)C1c1ccccc1 (stereo partly drawn) | Y |
| CC1(C)OC(=O)N([C@H]2CC[C@H](n3c(=O)[nH]c4cnc(C(F)(F)F)cc43)CC2)[C@H]1c1ccccc1 | Y |
| CC1(C)OC(=O)N([C@H]2CC[C@H](c3cnc(N)c(Nc4ncccn4)c3)CC2)[C@@H]1c1ccccc1 | N |
| CC1(C)OC(=O)N([C@H]2CC[C@H](NC(=O)n3ccc4cccnc43)CC2)[C@H]1c1ccccc1 | Y |

---

- System: Axin2 in SW480 cells
- assay_protocol: cells
- Assay type: cell-based
- condition_notes: Homo sapiens; SW480 cells, 24 hours; read-out: Axin2 384 IF EC50 IP

| molecule | EC50, µM |
| --- | --- |
| CC1(C)OC(=O)N([C@H]2CC[C@H](n3c(=O)[nH]c4cc(C#N)cnc43)CC2)[C@H]1c1ccccc1 | 0.795 |
| CC1(C)OC(=O)N([C@H]2CC[C@H](n3c(=O)[nH]c4cc(C#N)ccc43)CC2)[C@H]1c1ccccc1 | 0.0729 |
| CC1(C)OC(=O)N([C@H]2CC[C@H](n3c(=O)[nH]c4c(C#N)cccc43)CC2)[C@H]1c1ccccc1 | 0.454 |
| CC1(C)OC(=O)N([C@H]2CC[C@H](n3c(=O)[nH]c4cc(Br)cnc43)CC2)[C@H]1c1ccccc1 | 0.676 |
